Test system: 857933-349-R-J2-PDC complex spheroids, viability
assay-procedure: Anticancer human tumor 857933-349-R-J2-PDC patient-derived colon adenocarcinoma cell line growth inhibition [GQUAD]
study-conditions: second compound 3.16 µM; first compound 3.16 µM; active compounds read low
Listed here are compounds together with their documented viability, T/C.
reported-property: viability, T/C (%)

1) CC1COCCN1c1cc(-c2ccnn2C)c2ccnc(-c3ccn[nH]3)c2n1 (stereo unspecified) + Cc1[nH]c2ccc(F)cc2c1-c1nc2c3cccnc3c3ncccc3c2[nH]1 | 44.6
2) Nc1ccn(C2OC(CO)C(O)C2(F)F)c(=O)n1 (stereo unspecified) + Cc1cnc(CNC(=O)c2c(=O)c3ccc(N4CCCN(C)CC4)nc3n3c2sc2ccccc23)cn1 | 1.19
3) Nc1ccn(C2OC(CO)C(O)C2(F)F)c(=O)n1 (stereo unspecified) + Cc1[nH]c2ccc(F)cc2c1-c1nc2c3cccnc3c3ncccc3c2[nH]1 | 8.23
4) COc1cccc2c1C(=O)c1c(O)c3c(c(O)c1C2=O)CC(O)(C(=O)CO)CC3OC1CC(N)C(O)C(C)O1 (stereo unspecified) + CN(C)c1ccc(Nc2c3ccc(NC(=O)CCN4CCCC4)cc3nc3cc(NC(=O)CCN4CCCC4)ccc23)cc1 | 11.9
5) C#Cc1c(F)ccc2cc(O)cc(-c3ncc4c(N5CC6CCC(C5)N6)nc(OCC56CCCN5CC(F)C6)nc4c3F)c12 (stereo unspecified) + Cc1[nH]c2ccc(F)cc2c1-c1nc2c3cccnc3c3ncccc3c2[nH]1 | 80.8
6) COc1cccc2c1C(=O)c1c(O)c3c(c(O)c1C2=O)CC(O)(C(=O)CO)CC3OC1CC(N)C(O)C(C)O1 (stereo unspecified) + Cc1cnc(CNC(=O)c2c(=O)c3ccc(N4CCCN(C)CC4)nc3n3c2sc2ccccc23)cn1 | 0.14
7) CC(C)n1c(=O)n(C)c2cnc3cc(F)c(-c4ccc(OCCCN5CCCCC5)nc4)cc3c21 + Cc1[nH]c2ccc(F)cc2c1-c1nc2c3cccnc3c3ncccc3c2[nH]1 | 111
8) O=c1[nH]cc(F)c(=O)[nH]1 + CN(C)c1ccc(Nc2c3ccc(NC(=O)CCN4CCCC4)cc3nc3cc(NC(=O)CCN4CCCC4)ccc23)cc1 | 61.7
9) COc1ncnc(C2CC2)c1-c1ncc2cnn(Cc3ccc(-c4nc(C(F)(F)F)cn4C(C)C)cc3)c2n1 + CN(C)c1ccc(Nc2c3ccc(NC(=O)CCN4CCCC4)cc3nc3cc(NC(=O)CCN4CCCC4)ccc23)cc1 | 79.6
10) O=C(NO)c1cnc(N2CCN(S(=O)(=O)c3ccc4ccccc4c3)CC2)nc1 + Cc1[nH]c2ccc(F)cc2c1-c1nc2c3cccnc3c3ncccc3c2[nH]1 | 4.92
11) CC(C)n1c(=O)n(C)c2cnc3cc(F)c(-c4ccc(OCCCN5CCCCC5)nc4)cc3c21 + CN(C)c1ccc(Nc2c3ccc(NC(=O)CCN4CCCC4)cc3nc3cc(NC(=O)CCN4CCCC4)ccc23)cc1 | 98.1

---

System: 857933-349-R-J2-PDC complex spheroids, viability
assay-procedure: Anticancer human tumor 857933-349-R-J2-PDC cell line growth inhibition [GQUAD];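 further: spheroids exposed to compounds for one week before readout; percent viability relative to vehicle DMSO wells taken as 100%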
study-conditions: second compound 0.1 µM; first compound 1 µM; active compounds read low
TRUE if viability, T/C is below 60%. FALSE if not; exact matches included in FALSE.

1. COc1ncnc(C2CC2)c1-c1ncc2cnn(Cc3ccc(-c4nc(C(F)(F)F)cn4C(C)C)cc3)c2n1 + Cc1[nH]c2ccc(F)cc2c1-c1nc2c3cccnc3c3ncccc3c2[nH]1 | FALSE
2. COc1ccc([C@@H](O)c2cc(-c3ncnc4cc(N5CCOCC5)ccc34)c(F)cc2Cl)nn1 + Cc1[nH]c2ccc(F)cc2c1-c1nc2c3cccnc3c3ncccc3c2[nH]1 | FALSE
3. CC(C)(O)C1CCC(Nc2ccc3ncc(-c4cccc(C(F)(F)F)c4)n3n2)CC1 (stereo not given) + Cc1cnc(CNC(=O)c2c(=O)c3ccc(N4CCCN(C)CC4)nc3n3c2sc2ccccc23)cn1 | TRUE
4. CC1COCCN1c1cc(C2(S(C)(=N)=O)CC2)nc(-c2ccnc3[nH]ccc23)n1 (stereo not given) + CN(C)c1ccc(Nc2c3ccc(NC(=O)CCN4CCCC4)cc3nc3cc(NC(=O)CCN4CCCC4)ccc23)cc1 | FALSE
5. CC(=O)O[C@H]1C(=O)[C@@]2(C)[C@H]([C@H](OC(=O)c3ccccc3)[C@]3(O)C[C@H](OC(=O)[C@H](O)[C@@H](NC(=O)c4ccccc4)c4ccccc4)C(C)=C1C3(C)C)[C@]1(OC(C)=O)CO[C@@H]1C[C@@H]2O + CN(C)c1ccc(Nc2c3ccc(NC(=O)CCN4CCCC4)cc3nc3cc(NC(=O)CCN4CCCC4)ccc23)cc1 | TRUE
6. O=C(NO)c1cnc(N2CCN(S(=O)(=O)c3ccc4ccccc4c3)CC2)nc1 + CN(C)c1ccc(Nc2c3ccc(NC(=O)CCN4CCCC4)cc3nc3cc(NC(=O)CCN4CCCC4)ccc23)cc1 | FALSE
7. COc1cccc2c1C(=O)c1c(O)c3c(c(O)c1C2=O)CC(O)(C(=O)CO)CC3OC1CC(N)C(O)C(C)O1 (stereo not given) + Cc1[nH]c2ccc(F)cc2c1-c1nc2c3cccnc3c3ncccc3c2[nH]1 | TRUE
8. O=C(c1cc(Cc2n[nH]c(=O)c3ccccc23)ccc1F)N1CCN(C(=O)C2CC2)CC1 + Cc1[nH]c2ccc(F)cc2c1-c1nc2c3cccnc3c3ncccc3c2[nH]1 | FALSE
9. COc1cc(C2c3cc4c(cc3C(OC3OC5COC(C)OC5C(O)C3O)C3COC(=O)C23)OCO4)cc(OC)c1O (stereo not given) + Cc1cnc(CNC(=O)c2c(=O)c3ccc(N4CCCN(C)CC4)nc3n3c2sc2ccccc23)cn1 | TRUE
